Readings of pIC50 for the listed compounds
- target entity: Rho GTPase-activating protein 1 (Homo sapiens)
- measurement description: ARHGAP1 GAP activity inhibitors on Rac1 – biochemical, Biomol green phosphate read-out, selectivity assay for MgcRacGAP inhibitor project, dose response (AID 652148)
- recorded conditions: p50RhoGAP-stimulated Rac1 GTP hydrolysis
pIC50: −log10 of the molar value.

[
  {
    "sample smiles": "O=C(O)c1cc(N2N=C(C(F)(F)F)/C(=C/C=C/c3ccco3)C2=O)ccc1Cl",
    "pIC50": 5.33
  },
  {
    "sample smiles": "O=c1c2ccccc2sn1-c1ccc(F)cc1",
    "pIC50": 4.45
  },
  {
    "sample smiles": "O=c1c2ccccc2sn1-c1cccc(Cl)c1",
    "pIC50": 4.95
  }
]
